observable: melting point

compound=Cc1ncn(C)c1CO observable="melting point" result="125 to 127 °C"
compound=CCCC(=O)Nc1nc2ccccc2n2c(CC)nnc12 observable="melting point" result="185 to 187 °C"
compound=CCOc1ccc(N)c(S)c1 observable="melting point" result="104 °C"
compound="CC(=O)Oc1c(C)c2c(c3ccccc13)OCC2c1ccc(C(C)C)cc1 (stereo not drawn)" observable="melting point" result="109 to 110 °C"
compound="COC1OC(=O)C(OC)(OC)C1Cl (stereo not drawn)" observable="melting point" result="90 °C"
compound=OC(c1ccc(Cl)cc1)(c1ccc(Cl)cc1)c1ccns1 observable="melting point" result="118 to 120 °C"
compound=CCNc1ccnc(Cl)c1 observable="melting point" result="55 to 57 °C"
compound="CC1=CC(OC(=O)c2ccc(N)cc2N)C(O)C(C)(C)CC1=O (stereo not drawn)" observable="melting point" result="154 to 156 °C"
compound=Cc1c(C)c2ccc(OCCCN3CCC(=NO)CC3)cc2oc1=O observable="melting point" result="198 to 200 °C"
compound="O=C1N(Cc2ccccn2)c2ccc(Br)cc2C12COc1cc3c(cc12)OCCO3 (stereo not drawn)" observable="melting point" result="> 250 °C"
compound="COc1ccc2c(c1)CCC1C2=CCC2(C)C(OC(C)(C)C)CCC12 (single isomer, unassigned; (+))" observable="melting point" result="131 to 132 °C"
compound=CC(=O)C(=Cc1cc([N+](=O)[O-])c(O)c([N+](=O)[O-])c1)C(C)=O observable="melting point" result="158 °C"
compound="O=c1ccn([C@@H]2C=CCC[C@@H]2O)c(=O)[nH]1 (racemic)" observable="melting point" result="203 °C"
compound=C=CCOC(=O)Nc1cc(-c2cccc(Cl)c2)sc1C(C)(C)O observable="melting point" result="60 to 61 °C"
compound=CCCCC1=Nc2ccccc2C(=O)C1 observable="melting point" result="140 °C"
compound=CCOC(=O)c1nc(CCl)n(-c2ccccc2C(=O)c2ccccn2)n1 observable="melting point" result="129 to 130 °C"
compound="CC(Oc1ccc(OCc2ccccc2)cc1)C(=O)N(C)C#N (stereo not drawn)" observable="melting point" result="56 to 58 °C"
compound=COc1cc(C2CCN(C(=O)C(C)(C)N)CC2)ccc1Nc1ncc2ccc(-c3ccccc3OC)n2n1 observable="melting point" result="81 to 89 °C"
compound=O=C1CC(=O)C2CCC1C2 observable="melting point" result="129 to 130 °C"
compound="Cc1nc2c3c(c(C(=O)O)cc2n1C)CCC(c1ccccc1)N3 (stereo not drawn)" observable="melting point" result="325 to 326 °C"
compound=COCc1nc2ncccc2n1Cc1ccc(C(=O)N(C(C)C)C2CCCCC2)cc1OC observable="melting point" result="117 to 118 °C"
compound=COC(=O)c1cc(-c2ccc(S(C)(=O)=O)cc2)n(C2CCCCCC2)n1 observable="melting point" result="115 to 117 °C"
compound=O=C(NC1CCN(CCCCl)CC1)c1ccccc1 observable="melting point" result="145 to 147 °C"
compound=CC(C)n1nc(-c2sc(NCCN3CCCCC3)nc2-c2ccccc2)ccc1=O observable="melting point" result="165 to 166 °C"
compound=CSc1nsc(NC(=O)C(C)(C)C)c1C#N observable="melting point" result="177 to 178 °C"
compound=C[C@H](CO)Nc1nc(SCc2cccc(F)c2F)nc2[nH]c(=O)c(NCCO)nc12 observable="melting point" result="197 to 199 °C"
compound=COCCOc1ccc(C=O)c2cc3ccccc3cc12 observable="melting point" result="72 to 74 °C"
compound=COc1cc2c(c3c1OC(C)(C)C3)C(c1ccncc1)=NC(C)(C)C2 observable="melting point" result="173 to 175 °C"
compound=O=C(O)c1cc([N+](=O)[O-])c(Cl)c(S(=O)(=O)Cl)c1 observable="melting point" result="189 to 190 °C"
compound=CCOC(=O)Cc1ccccc1N(C(=O)CNC(=O)Nc1cccc(C)c1)c1ccccc1 observable="melting point" result="120 °C"
compound=O=C(N[C@H](Cc1ccccc1)C(=O)O)OCc1ccc2nc(-c3ccccc3)ccc2c1 observable="melting point" result="190 to 191 °C"
compound=COC(=O)c1ccc([C@H]2CC[C@H](C3OCCO3)CC2)cc1 observable="melting point" result="110 to 111 °C"
compound=CCc1cccc2c(C(=O)OC)cnnc12 observable="melting point" result="59 to 60 °C"
compound="O=CC1C(=O)NC(=O)N1CCCCCCC(=O)O (stereo not drawn)" observable="melting point" result="224 to 225 °C"
compound=CCOC(=O)c1ccc(-c2nc(COc3ccc(COc4nn(-c5ccccc5)cc4/C=C\c4csc(CC)n4)cc3OC)c(C)o2)o1 observable="melting point" result="133 to 135 °C"
compound=CCCCN1CCC2(CC1)OC(=O)c1ccccc12 observable="melting point" result="60 to 62 °C"
compound=COc1cccc(Oc2ccc3ccc(N)nc3n2)c1 observable="melting point" result="160 °C"
compound=Cc1ccccc1OC1CCN(CCc2c[nH]c3ccccc23)CC1 observable="melting point" result="88 to 90 °C"
compound=COC(=O)c1c(NCC(C)C)n[nH]c1C observable="melting point" result="100 to 103 °C"
compound=Cc1nc2c(-c3cccc(N4CCOCC4)c3)cnn2c(N)c1-c1cccc(Cl)c1 observable="melting point" result="165 to 167 °C"
compound=CC[C@@H](C)[C@H](N)C(O)(c1ccccc1)c1ccccc1 observable="melting point" result="128 to 129 °C"
compound=O=C(O)CNC(=O)c1nc(Cl)c2ccc(OCc3ccccc3)cc2c1O observable="melting point" result="210 to 211 °C"
compound="Cc1cccc(Cn2cc(-c3cn(C4CC(O)C(CO)O4)c(=O)[nH]c3=O)nn2)c1 (stereo not drawn)" observable="melting point" result="132 to 133 °C"

###

observable: melting point (°C)

molecule=Cc1nnc(O[Si](C)(C)C)nc1O[Si](C)(C)C observable="melting point" measureunit=°C quantitativereadout=43
molecule=C1=C(c2csc3ccccc23)CCN(Cc2ccccc2)C1 observable="melting point" measureunit=°C quantitativereadout=90
molecule=Nc1cc(=O)n(Cc2ccc(F)cc2Cl)[nH]1 observable="melting point" measureunit=°C quantitativereadout=192
molecule="COc1cc(Cl)ccc1CN1C(=O)C(C)(c2cc(C(=O)N3CCCCC3)ccc2Cl)c2cc(Cl)ccc21 (stereo not given)" observable="melting point" measureunit=°C quantitativereadout=205
molecule=CO/C=C(/C(=O)OC)c1ccccc1COc1nc(C(F)(F)F)sc1C observable="melting point" measureunit=°C quantitativereadout=59

###

Measured melting point by item
observable: melting point

compound=Cc1ccc(F)cc1C(=O)Nc1ccc(C(=O)N2Cc3cccn3Cc3ccccc32)cc1 result="170 to 180 °C"
compound=O=C(O)C(=O)c1ccc(OCc2ccccc2)c(Cl)c1 result="134 to 135 °C"
compound=O=C1OC(=O)c2cc(N3C(=O)CCC3=O)ccc21 result="228 to 230 °C"
compound=COc1cc(Nc2c(C#N)cnc3cc(C#CCCN4CCNCC4)c(OC)cc23)c(Cl)cc1Cl result="188 to 190 °C"
compound=CC(C)(C)c1ccc2c(c1)C(COCc1ccccc1)([Si](C)(C)C)c1cc(C(C)(C)C)ccc1-2 result="100 to 102 °C"
compound=CN(c1cccc2cc(-c3ncc(CC#N)s3)[nH]c12)S(=O)(=O)c1cccs1 result="186 to 187 °C"
compound="O=C1CCCC12CCn1c(cc3ccccc31)C2 (stereo not given)" result="128 to 130 °C"
compound=Cc1c(Cc2cccc(C(F)(F)F)c2)oc2cccc(-c3cccc(C(=O)NCCO)c3)c12 result="139 to 141 °C"
compound="COC(=O)C1=C(C)NN=C(C(=O)OC2CCCC2)C1c1ccccc1Cl (stereo not given)" result="152 °C"
compound=N#CC(Cc1ccccn1)(c1ccccc1)c1ccccc1 result="116 to 117 °C"
compound=CC(C)Sc1ccc(O)cc1O result="67 °C"
compound=CCOC(=O)Cc1nn(Cc2nc3cc(C(F)(F)F)ccc3s2)c(=O)c2ccccc12 result="131 to 132 °C"
compound=CCCCc1c(/C=C/C(=O)Oc2ccc([N+](=O)[O-])cc2)ccc2c(OC)cccc12 result="115 to 116 °C"
compound=COc1ccc(C(=O)Nc2ccccc2)cc1NC(=S)Nc1cccc([N+](=O)[O-])c1 result="188 to 189 °C"
compound=O=C(O)c1cnc(N2CCCC2)c(OCC2CCCC2)n1 result="204 to 206 °C"
compound="CN(C)CCNC(=O)[C@H]1C[C@H](NC(=O)Nc2ccccc2)c2c(Cl)cc(Cl)cc2N1 (relative stereo)" result="223 to 224 °C"
compound=COC(=O)C=Cc1ccc(Br)cc1 result="80 °C"
compound=CCNC(=O)c1ccc(N2CCN(Cc3cc4c(c(OC)c3)OCC(=O)N4)CC2)c(C)c1 result="208 to 225 °C"
compound="CCOC(=O)c1[nH]cc2c1NC1=C(C(=O)CCC1)C2c1ccc(Sc2nc3c(F)c(F)c(F)cc3[nH]2)o1 (stereo not given)" result="186 °C"
compound=COc1cnccc1CCCOc1cccnc1Oc1cccc(Br)c1 result="134 to 136 °C"
